B1: MLL5 (parent)
chain: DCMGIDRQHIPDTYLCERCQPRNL

variants of: B1; assay: protein stability index of a GFP-peptide fusion (GPS, HEK-293T) (PSI 1-6); higher = more stable; details: c terminus: a fixed tail appended;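 further: lentivirally expressed fusions sorted by FACS into six bins by GFP to DsRed ratio, PSI derived from sequencing read proportions per bin multiplied by bin number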
OBSERVABLE: protein stability index
Give bare numbers.

Recorded protein stability index, per entry:
polymer_sequence="CCMGIDRQHIPDTYLCERCQPRNL [D1C]" observable="protein stability index" obs_value=3.63
polymer_sequence="DCMGIDRQHIPDTYLFERCQPRNL [C16F]" observable="protein stability index" obs_value=3.13
polymer_sequence="DCMGIDRQHIPDTYLCERCHPRNL [Q20H]" observable="protein stability index" obs_value=2.8
polymer_sequence="DCMGIDRTHIPDTYLCERCQPRNL [Q8T]" observable="protein stability index" obs_value=2.33
polymer_sequence="DCMGIDRVHIPDTYLCERCQPRNL [Q8V]" observable="protein stability index" obs_value=2.1

Hello, I would appreciate it if you could give protein stability index for each entry below.
1. DCMGIDRKHIPDTYLCERCQPRNL [Q8K]
2. DCMGIDRQHIPDPYLCERCQPRNL [T13P]
3. DCMGIDRQHIPDTYLCERCMPRNL [Q20M]
4. DCMGIDLQHIPDTYLCERCQPRNL [R7L]

*A*
1. 2.44
2. 3.33
3. 3.26
4. 2.68

Hello, I would appreciate it if you could give protein stability index for each entry below.
1. DCMGIDRQHIPGTYLCERCQPRNL [D12G]
2. DCMGIDRQHIPDTYLCERCQPRAL [N23A]
3. DCMGIDRQHIPDTYLAERCQPRNL [C16A]
4. DCMGIDRNHIPDTYLCERCQPRNL [Q8N]
5. DCMGIDRQHIPDTYLCERCQSRNL [P21S]

*A*
2.63
2.09
3.56
3.07
2.93

Hello, I would appreciate it if you could give protein stability index for each entry below.
1. DCMGIDRQHIPDTYLCERCCPRNL [Q20C]
2. DCMGIDRQHIPDTYLCERCQPRCL [N23C]

*A*
1. 2.69
2. 1.85
